System: Botrytis cinerea
METHOD_NOTES: Antifungal activity against Botryotinia fuckeliana assessed as mycelial growth inhibition after 2 to 6 days
Assay type: functional
CONDITIONS: read-out: ED50 (the source's name)
Known EC50 of a selection of compounds
State the value, then name its unit.

Worked cases, EC50 given:
O=[N+]([O-])c1ccc(NS(=O)(=O)c2ccccc2)cc1 | 65.7 µg/mL
O=S(=O)(Nc1ccc(C(F)(F)F)cc1)c1ccccc1 | 14.8 µg/mL
O=S(=O)(Nc1ccc(F)c(C(F)(F)F)c1)c1ccccc1 | 10.7 µg/mL
O=S(=O)(Nc1ccccc1)c1ccccc1 | 239 µg/mL
O=[N+]([O-])c1ccc(NS(=O)(=O)c2ccccc2)c(C(F)(F)F)c1 | 33.1 µg/mL
O=[N+]([O-])c1cccc(S(=O)(=O)Nc2ccc([N+](=O)[O-])cc2Cl)c1 | 63.6 µg/mL
O=[N+]([O-])c1cccc(S(=O)(=O)Nc2ccc(F)c(C(F)(F)F)c2)c1 | 3.5 µg/mL

Lab note: O=[N+]([O-])c1ccc(NS(=O)(=O)c2ccccc2)c(Cl)c1 gave EC50 of 28 µg/mL
